This listing pairs binders with measured IC50.
Biological target: human α4β7 integrin on cells (human) (UniProt P13612)
Experiment: RPMI8866 adhesion to MAdCAM-1
Bridge positions count the residues as written; N and C are the ends. Square brackets hold non-standard residues; d marks the D form. Ends that are not written are not given here. 1Nal = N[C@@H](Cc1cccc2ccccc12)C(=O)O; 2Nal = N[C@@H](Cc1ccc2ccccc2c1)C(=O)O; NMeR = CN[C@@H](CCCNC(=N)N)C(=O)O; Tic = O=C(O)[C@@H]1Cc2ccccc2CN1; Pen = CC(C)(S)[C@H](N)C(=O)O; dNMeK = CN[C@H](CCCCN)C(=O)O; hLeu = CC(C)CC[C@H](N)C(=O)O; Dap = NC[C@H](N)C(=O)O

>>> observed("Ac-[Pen][NMeR]SDTL[Pen]W[dE][Dap]-NH2 (disulfide 1-7; SMILES CC(=O)N[C@@H]1C(=O)N(C)[C@@H](CCCNC(=N)N)C(=O)N[C@@H](CO)C(=O)N[C@@H](CC(=O)O)C(=O)N[C@@H]([C@@H](C)O)C(=O)N[C@@H](CC(C)C)C(=O)N[C@H](C(=O)N[C@@H](Cc2c[nH]c3ccccc23)C(=O)N[C@H](CCC(=O)O)C(=O)N[C@@H](CN)C(N)=O)C(C)(C)SSC1(C)C) [SEQ ID NO: 55]")
"> 100 nM"
>>> observed("[Pen][NMeR]SDTL[Pen][2Nal]E (disulfide 1-7 (inferred); not fully specified (bridges); printed as Cyclo-[Pen-N-Me-R-S-D-T-L-Pen-2-Nal-E], Pen-Pen disulfide) [SEQ ID NO: 143]")
"> 10000 nM"
>>> observed("Ac-[Pen][NMeR]SDTL[Pen]W[dE][Dap] (disulfide 1-7; also: C-terminus written Dap-Ac, acetyl place unclear) [SEQ ID NO: 63]")
"> 1000 nM"

Exercise: Could you share which IC50 value was measured for Ac-[Pen][NMeR]SDTL[Pen][1Nal][Tic][dK]-NH2 (disulfide 1-7 (inferred); also: homodimer via DIG) [SEQ ID NO: 115] ?
Key: > 100 nM

Exercise: Next entry: Ac-[Pen][NMeR]SDTL[Pen][2Nal][dE][dNMeK]-NH2 (disulfide 1-7; also: dimer via DIG) [SEQ ID NO: 39]
Key: > 10 nM

Exercise: And for Ac-[Pen][NMeR]SD[hLeu]L[Pen][2Nal][dE]-NH2 (disulfide 1-7; SMILES CC(=O)N[C@@H]1C(=O)N(C)[C@@H](CCCNC(=N)N)C(=O)N[C@@H](CO)C(=O)N[C@@H](CC(=O)O)C(=O)N[C@@H](CCC(C)C)C(=O)N[C@@H](CC(C)C)C(=O)N[C@H](C(=O)N[C@@H](Cc2ccc3ccccc3c2)C(=O)N[C@H](CCC(=O)O)C(N)=O)C(C)(C)SSC1(C)C) [SEQ ID NO: 161] ?
Key: > 1000 nM

Exercise: // same read-out, input: Ac-[Pen][NMeR]SDTL[Pen][2Nal][dE][dK]-NH2 (disulfide 1-7; also: dimer via DIG) [SEQ ID NO: 33]
Key: > 10 nM

Exercise: Also, Ac-[Pen][NMeR]SDTL[Pen][2Nal][dY][dK]-NH2 (disulfide 1-7; also: dimer via DIG) [SEQ ID NO: 27] please.
Key: > 25 nM

Exercise: Now the binder Ac-[Pen][NMeR]SDTL[Pen][1Nal]E[dK]-NH2 (disulfide 1-7; also: dimer via DIG) [SEQ ID NO: 24]
Key: < 10 nM

Exercise: Then Ac-[Pen][NMeR]SDTL[Pen]W[Tic][dK]-NH2 (disulfide 1-7; also: dimer via DIG, attachment site not given here) [SEQ ID NO: 109] ?
Key: > 100 nM

Exercise: Cool, now Ac-[Pen][NMeR]SDTY[Pen][2Nal][dE]-NH2 (disulfide 1-7; SMILES CC(=O)N[C@@H]1C(=O)N(C)[C@@H](CCCNC(=N)N)C(=O)N[C@@H](CO)C(=O)N[C@@H](CC(=O)O)C(=O)N[C@@H]([C@@H](C)O)C(=O)N[C@@H](Cc2ccc(O)cc2)C(=O)N[C@H](C(=O)N[C@@H](Cc2ccc3ccccc3c2)C(=O)N[C@H](CCC(=O)O)C(N)=O)C(C)(C)SSC1(C)C) [SEQ ID NO: 164]
Key: > 1000 nM

Exercise: Try the binder Ac-[Pen][NMeR]SDTL[Pen][2Nal][dH][dK]-NH2 (disulfide 1-7 (inferred); also: homodimer via DIG) [SEQ ID NO: 118]
Key: > 25 nM

Exercise: Again, but for Ac-[Pen][NMeR]SDTL[Pen][2Nal]E-NH2 (disulfide 1-7; SMILES CC(=O)N[C@@H]1C(=O)N(C)[C@@H](CCCNC(=N)N)C(=O)N[C@@H](CO)C(=O)N[C@@H](CC(=O)O)C(=O)N[C@@H]([C@@H](C)O)C(=O)N[C@@H](CC(C)C)C(=O)N[C@H](C(=O)N[C@@H](Cc2ccc3ccccc3c2)C(=O)N[C@@H](CCC(=O)O)C(N)=O)C(C)(C)SSC1(C)C) [SEQ ID NO: 75]
Key: > 50 nM

Attribution: patent US20180148477A1
